# Tested on: NE dynamics in the lateral hypothalamus (GRABNE1m fluorescence)
# Type: in vivo, mouse
# measurement.parameters: i.p.; atomoxetine 3 mg/kg, yohimbine 2 mg/kg, GBR 12909 10 mg/kg, sulpiride 50 mg/kg
endpoint: effect on time to return to baseline after tail suspension

| compound | reading |
| --- | --- |
| Fc1ccc(C(OCCN2CCN(CCCc3ccccc3)CC2)c2ccc(F)cc2)cc1 [GBR 12909] | had no effect |
| CCN1CCCC1CNC(=O)c1cc(S(N)(=O)=O)ccc1OC (stereo not shown) [sulpiride, Sulpiride] | had no effect |

Where do the numbers come from? From paper PMC6533151.
